The origin of these recorded values is ChEMBL document CHEMBL1212927.

Consider the following compounds; for each one, report its MIC.
- Tested on: Staphylococcus aureus
- METHOD SUMMARY: Antibacterial activity against constitutive macrolide-lincosamide-streptogramin B-resistant Staphylococcus aureus B0330 by agar microdilution method
- Type: functional

Exercise: Form field: reported MIC of CC[C@H]1OC(=O)[C@H](C)C(=O)[C@H](C)[C@@H](O[C@@H]2O[C@H](C)C[C@H](N(C)C)[C@H]2O)[C@](C)(OCC(O)CN2CCN(c3ccc([N+](=O)[O-])cc3)CC2)C[C@@H](C)NC(=O)[C@H](C)[C@@H](O)[C@]1(C)O (some centres not stated)
Key: > 64 µg/mL

Exercise: Form field: reported MIC of "CC[C@H]1OC(=O)[C@H](C)C(=O)[C@H](C)[C@@H](O[C@@H]2O[C@H](C)C[C@H](N(C)C)[C@H]2O)[C@](C)(OC[C@H](O)CNCCNc2ccc3ncccc3c2)C[C@@H](C)NC(=O)[C@H](C)[C@@H](O)[C@]1(C)O"
Key: > 64 µg/mL
